- tested-target: T1, human SIAH1-SBD (91–282) (human, UniProt Q8IUQ4-1 91-282)
- T1 sequence (looked up): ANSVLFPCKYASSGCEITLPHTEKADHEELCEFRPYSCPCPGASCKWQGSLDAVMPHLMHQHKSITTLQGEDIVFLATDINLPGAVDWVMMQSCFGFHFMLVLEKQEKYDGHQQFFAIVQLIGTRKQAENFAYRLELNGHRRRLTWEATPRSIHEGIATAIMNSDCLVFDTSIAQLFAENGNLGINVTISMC
- assay-method-text: ITC
pKd: −log10 of the molar value.

{"binder": "YRVPKEVRVEPQKFAEELIH (peptide, UniProt O15169-1 375-394, looked up) [20-residue human AXIN1 peptide (residues 375–394)]", "pKd": 5.25}
